exon inclusion enrichment index: recorded values
B1: mRNA-splicing (parent)
chain: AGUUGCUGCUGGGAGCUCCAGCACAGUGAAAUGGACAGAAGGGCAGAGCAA

Variants of: B1
Test: exon inclusion enrichment index; higher = more inclusion; WT1 exon 5 minigene, HEK293
Lab note: record just the number, no unit beside it.

As a guide, the following entries are already answered.
Challenge: Which exon inclusion enrichment index value is on record for G5C C6U G8C C9U U10C A20U G21U ?
Response given: 1.12

Challenge: Name the reported exon inclusion enrichment index value associated with the variant G5C C6U G8C C9U U10C G43C C44A
Response given: 3.17

Challenge: What value of exon inclusion enrichment index has been reported for the following variant? G5C C6A U7C G8A U10A G15C C16U
Response given: 0.0687

Challenge: Fill blank: measured exon inclusion enrichment index of the variant G5C C6A U7C G8A U10A C24G is ____.
Response given: 0.119

Challenge: What does the record list as exon inclusion enrichment index for G5U G8U C9U U17G C18G ?
Response given: 0.13

Challenge: Given the entry G2A U3C G5A C6U U7A G8U C9A , report its measured exon inclusion enrichment index.
Response given: 0.0801

Challenge: Suppose we examine the variant G5C C6A U10A ; what exon inclusion enrichment index value has been reported?
Response given: 0.116

Challenge: Which measured exon inclusion enrichment index value corresponds to G5A U7C G8A U10C G33U G34A ?
Response given: 0.441

Continuing:
Challenge: Endpoint output: exon inclusion enrichment index of G5C C6A U7C G8A U10A C44A A45U . Value?
Response given: 0.339

Challenge: Consider the variant shown here: G2C U3A G5A C6G U7G C9A What is its recorded exon inclusion enrichment index?
Response given: 0.0159

Challenge: Form field: reported exon inclusion enrichment index of C6A U7C C9A U10C C19G
Response given: 3.61

Challenge: Fill blank: measured exon inclusion enrichment index of the variant G5C C6A U7C G8A U10A U27A is ____.
Response given: 0.151

Challenge: I'd like to know its exon inclusion enrichment index. The variant in question is G5C C6U G8C C9U U10C A37G G38C
Response given: 2.08

Challenge: // query exon inclusion enrichment index value for entry G5A C6U U7A G8U C9A G28C
Response given: 0.0466

Challenge: Need exon inclusion enrichment index of G5A C6U U7A G8U C9A U32C , thanks.
Response given: 0.14

Challenge: What does the record list as exon inclusion enrichment index for G5U G8U C9U U17C C18A ?
Response given: 0.0484

Challenge: What exon inclusion enrichment index value was documented for this variant, G5C C6A U7C G8A U10A A39C A40U ?
Response given: 0.0879

Challenge: Given the variant G5A C6U U7A G8U C9A A35C , what is its reported exon inclusion enrichment index?
Response given: 0.00811

Challenge: Query: exon inclusion enrichment index; subject: C6A U7C C9A U10C A31G
Response given: 3.73

Challenge: Param item = G5A U7C G8A U10G G11C ; retrieve measured exon inclusion enrichment index.
Response given: 2.55
